Would you mind telling me the reported cell viability of each entry?
Tested on: NOMO1
Assay Summary: cell viability relative to DMSO control; higher = less cytotoxic
Cond: HPLM + 10% dialyzed FBS; 48 h; 0.569 µM
Answers are plain numbers, in %.

Compound: CNCCCC12CCC(c3ccccc31)c1ccccc12
Reported Endpoint: cell viability
Value Measured: 101

Each of the following entries comes with a recorded value; kindly state cell viability for each.
1. COc1cc(F)c(F)c(Nc2ccc(I)cc2F)c1N[S+](=O)([O-])C1(C[C@H](O)CO)CC1
2. CNCC(O)c1ccc(O)cc1 (stereo not drawn)
3. Cc1onc(-c2ccccc2Cl)c1C(=O)N[C@@H]1C(=O)N2[C@@H]1SC(C)(C)[C@@H]2C(=O)[O-]
4. CCN1CCN(CC1)CC(=O)NC2=CC=C(C3=C2C4=C(S3)C=CC=C4)C5=C6O\C(=C/C(=O)C6=CC=C5)N7CCOCC7
5. CCN(CC)CCOc1ccc(/C(=C(\Cl)c2ccccc2)c2ccccc2)cc1
6. CC1=C(C)C(=O)C(C(CCCCCC(=O)O)c2ccccc2)=C(C)C1=O (stereo not drawn)
7. C[C@H]1C[C@@H]2[C@H](CC[C@@]3(C)[C@H]2CC[C@]3(OC(C)=O)C(C)=O)[C@@]\4(C)CCC(=O)\C=C14
8. CC[S+](=O)([O-])c1cccc(-c2cc(C(=O)NC3CCN(C)CC3)c(C)c3[nH]c4ncc(C)cc4c23)c1

Output:
[101, 129, 105, 121, 130, 53.4, 125, 115]

Each of the following entries comes with a recorded value; kindly state cell viability for each.
1. Nc1ncnc2c1ncn2[C@@H]1O[C@@H](CO)[C@H](O)[C@@H]1O
2. CCN1CCN(c2ccc(Nc3cc(N(C)C(=O)Nc4c(Cl)c(OC)cc(OC)c4Cl)ncn3)cc2)CC1

Output:
[144, 98.8]

Each of the following entries comes with a recorded value; kindly state cell viability for each.
1. C[C@]12COC(=O)C[C@@H]1CC[C@@H]1[C@@H]2CC[C@@]2(C)[C@H]1CC[C@]2(C)O
2. NNCCc1ccccc1
3. C[N]1C=C(C=N1)C2=C3\C=N/NC(=O)C4=C3C(=CC(=C4)NC(=O)[C@H](N)C5CCCCC5)[NH]2
4. N[S+]([O-])(=O)C1=C(Cl)C=C2\N=C/N[S+]([O-])(=O)C2=C1

Output:
[98.6, 108, 91.6, 118]

Each of the following entries comes with a recorded value; kindly state cell viability for each.
1. O=C(c1ccc(OCCN2CCCCC2)cc1)c1c(-c2ccc(O)cc2)sc2cc(O)ccc12
2. C[C@]12CC[C@H]3[C@@H](CC[C@H]4NC(=O)\C=C/[C@]34C)[C@@H]1CC[C@@H]2C(=O)NC5=CC(=CC=C5C(F)(F)F)C(F)(F)F
3. Cc1nn(Cc2ccccc2Cl)c(C)c1CN(C)CC(O)COc1ccc(Cl)cc1 (stereo not drawn)

Output:
[143, 101, 108]

* * *

Tested on: SEM cells
Assay Summary: cell viability relative to DMSO control; higher = less cytotoxic
Cond: RPMI 5 mM glucose + 10% dialyzed FBS; 48 h; 0.00234 µM
Reported Endpoint: cell viability (%)
Answers are plain numbers, in %.

Each of the following entries comes with a recorded value; kindly state cell viability for each.
1. OC(c1cc(C(F)(F)F)nc2c(C(F)(F)F)cccc12)C1CCCCN1 (stereo not given)
2. CC[C@H](NC1=C2N=C[NH]C2=NC=N1)C/3=N/C4=C(C(=CC=C4)F)C(=O)N3C5=CC=CC=C5
3. CC(C)(C)NC(=O)Nc1cccc(Nc2ncc(F)c(NC(C)(C)CO)n2)c1
4. CCOC(=O)c1ccc(OC(=O)CCCCCNC(=N)N)cc1

Output:
[130, 110, 118, 86.9]

Input: Consider the molecule shown here: `S=C(NCc1ccc2c(c1)OCO2)N1CCN(c2ncnc3c2oc2ccccc23)CC1` What is its recorded cell viability?
Output: 103

* * *

Would you mind telling me the reported cell viability of each entry?
Tested on: SEM cells
Assay Summary: cell viability relative to DMSO control; higher = less cytotoxic
Cond: RPMI 5 mM glucose + 10% FBS; 48 h; 0.19 µM
One number for each entry, in %.

Entry Smiles: NC\1=N\C(=O)N(\C=C1)[C@@H]2O[C@H](CO)[C@@H](O)[C@@H]2O
Subject Of Test: SEM cells
Quantity Unit: %
Value Measured: 12.1

Entry Smiles: CC1(C)O[C@@H]2C[C@H]3[C@@H]4C[C@H](F)C5=CC(=O)C=C[C@]5(C)[C@@]4(F)[C@@H](O)C[C@]3(C)[C@]2(C(=O)CO)O1
Subject Of Test: SEM cells
Quantity Unit: %
Value Measured: 63.2

Entry Smiles: COCCOc1ccc2c(c1)ncn2-c1ccc2cccc(N3CCC(N)CC3)c2n1
Subject Of Test: SEM cells
Quantity Unit: %
Value Measured: 47.8

Entry Smiles: CNC(=O)c1c(-c2ccc(F)cc2)oc2cc(N(CCO)[S+](C)(=O)[O-])c(C3CC3)cc12
Subject Of Test: SEM cells
Quantity Unit: %
Value Measured: 26.8

Kindly review the next compound as well.
Input: Consider the compound shown here: `CCC1(c2ccccc2)C(=O)NCNC1=O` What is its recorded cell viability?
Output: 109

* * *

Test system: NOMO1
Assay Summary: cell viability relative to DMSO control; higher = less cytotoxic
Cond: RPMI 5 mM glucose + 10% FBS; 48 h; 0.19 µM
Reported Endpoint: cell viability (%)
Numbers only, in %.

Examples with answers:
Molecule: CCN1CCN(CC1)CC(=O)NC2=CC=C(C3=C2C4=C(S3)C=CC=C4)C5=C6O\C(=C/C(=O)C6=CC=C5)N7CCOCC7
Subject Of Test: NOMO1
cell viability, %: 129
--
Molecule: CC(C)c1noc(N2CCC(COc3ccc(-c4ccc([S+](C)(=O)[O-])cc4)nc3)CC2)n1
Subject Of Test: NOMO1
cell viability, %: 114

Each of the following entries comes with a recorded value; kindly state cell viability for each.
1. CC[C@]12CC[C@H]3[C@@H](CCC/4=C/C(=O)CC[C@H]34)[C@@H]1\C=C/[C@@]2(O)C#C
2. COC(=O)C[C@](O)(CCCC(C)(C)O)C(=O)O[C@@H]1C(OC)=CC23CCCN2CCc2cc4c(cc2[C@H]13)OCO4 (some centres not stated)
3. CCN1CCN(c2ccc(Nc3cc(N(C)C(=O)Nc4c(Cl)c(OC)cc(OC)c4Cl)ncn3)cc2)CC1
4. O=c1[nH]c2ccccc2n1CCCN1CCC(n2c(=O)[nH]c3cc(Cl)ccc32)CC1
5. C[C@@H]1COCCN1c1cc(C2([S@+](C)(=N)[O-])CC2)nc(-c2ccnc3[nH]ccc23)n1

Output:
[138, 98.4, 118, 149, 130]

* * *

Test system: SEM cells
Assay Summary: cell viability relative to DMSO control; higher = less cytotoxic
Cond: HPLM + 10% dialyzed FBS; 48 h; 15.4 µM
Lab note: compare cell viability with 90%, writing Fulfilled if less and Not fulfilled if equal or more.

Entry Smiles: c1ccc2[nH]c(-c3cscn3)nc2c1
Label Value: Fulfilled
//
Entry Smiles: C[C@](O)(CS(=O)(=O)c1ccc(F)cc1)C(=O)Nc1ccc(C#N)c(C(F)(F)F)c1
Label Value: Not fulfilled
//
Entry Smiles: COc1ccc([C@@H]2CC(=O)c3c(O)cc(O[C@@H]4O[C@H](CO[C@@H]5O[C@@H](C)[C@H](O)[C@@H](O)[C@H]5O)[C@@H](O)[C@H](O)[C@H]4O)cc3O2)cc1O
Label Value: Not fulfilled
//
Entry Smiles: CCN1CCN(c2ccc(Nc3cc(N(C)C(=O)Nc4c(Cl)c(OC)cc(OC)c4Cl)ncn3)cc2)CC1
Label Value: Fulfilled
//
Entry Smiles: CCC1(c2ccccc2)C(=O)NCNC1=O
Label Value: Not fulfilled

Input: In plain terms, does `O=C(C=CC#Cc1cccc(N[S+](=O)([O-])c2ccccc2)c1)NO` come in under 90% for cell viability?
Output: Fulfilled

Input: In plain terms, does `CN[C@@H](C)[C@H]1[C@H](O)C[C@@]2(C)[C@@H]3CC[C@H]4C(C)(C)[C@@H](NC)CC[C@@]45C[C@@]35CC[C@]12C` come in under 90% for cell viability?
Output: Not fulfilled

* * *

Tested on: P12-Ichikawa
Assay Summary: cell viability relative to DMSO control; higher = less cytotoxic
Cond: RPMI 5 mM glucose + 10% dialyzed FBS; 48 h; 46.1 µM
Lab note: compare cell viability with 80%, writing yes if less and no if equal or more.

Entry Smiles: CCOC(=O)[C@@H](N)Cc1ccc(-c2cc(O[C@H](c3ccc(Cl)cc3-n3ccc(C)n3)C(F)(F)F)nc(N)n2)cc1.O=C(O)CNC(=O)c1ccccc1
Label Value: yes
--
Entry Smiles: CC(C)OC(=O)/C1=C/N(CC(C)(C)C2=C1[NH]C3=CC=CC=C23)C(=O)C4=CC=C(F)C(=C4)F
Label Value: no
--
Entry Smiles: COc1ccc([C@@H]2CC(=O)c3c(O)cc(O[C@@H]4O[C@H](CO[C@@H]5O[C@@H](C)[C@H](O)[C@@H](O)[C@H]5O)[C@@H](O)[C@H](O)[C@H]4O)cc3O2)cc1O
Label Value: no
--
Entry Smiles: C[C@]12CCC(=O)C=C1CC[C@@H]1[C@@H]2[C@@H](O)C[C@@]2(C)[C@H]1CC[C@]2(O)C(=O)CO
Label Value: yes

Then this molecule:
Input: In plain terms, does `Cc1c(C)n(Cc2ccc(-c3ccccc3C(=O)O)cc2)c2ccc(C(=O)N[C@@H](C)c3ccc([N+](=O)[O-])cc3)cc12` come in under 80% for cell viability?
Output: yes
